Test system: pathogens of clinical samples
Assay: Molecular phenotypic antimicrobial susceptibility test of clinical samples, extraction DNA purification step prior to PCR (Table 6)
Format: cell-based
Settings: K. aerogenes, clinical sample of r136-r150
OBSERVATION_TYPE: Molecular Antibiotic Susceptibility Result

>>> measurement("Cc1nnc(SCC2=C(C(=O)O)N3C(=O)[C@@H](NC(=O)Cn4cnnn4)[C@H]3SC2)s1")
"Resistant"
>>> measurement("CC1(C)S[C@@H]2[C@H](NC(=O)[C@H](N)c3ccccc3)C(=O)N2[C@H]1C(=O)O")
"Resistant"
>>> measurement("CO[C@@]1(NC(=O)Cc2cccs2)C(=O)N2C(C(=O)O)=C(COC(N)=O)CS[C@@H]21")
"Resistant"

====

System: pathogen of the specimen
Assay: Molecular phenotypic antimicrobial susceptibility test with direct PCR at various incubation timepoints (Table 7)
Format: cell-based
Details: E. coli isolate 1189, antibiotic incubation time 6 hours
OBSERVATION_TYPE: Molecular Antimicrobial Susceptibility Result

>>> measurement("CC1(C)S[C@@H]2[C@H](NC(=O)[C@H](N)c3ccccc3)C(=O)N2[C@H]1C(=O)O [Ampicillin]")
"Resistant"
>>> measurement("CO/N=C(\\C(=O)N[C@@H]1C(=O)N2C(C(=O)O)=C(CSc3nc(=O)c(=O)[nH]n3C)CS[C@H]12)c1csc(N)n1 [Ceftriaxone]")
"Resistant"

====

Test system: pathogens of clinical samples
Test: Molecular phenotypic antimicrobial susceptibility test of clinical samples, extraction DNA purification step prior to PCR (Table 6)
Assay type: cell-based
Conditions: P. mirabilis, clinical sample of r25-r39, Ct Control Avg 26.064
Decision: Ct >= 30 yields 1 (yes), all other cases yield 0 (no).

Dear colleague, could you confirm whether C[C@@H]1O[C@@H]1P(=O)(O)O has Ct at or above 30?
0 (no)

Dear colleague, could you confirm whether C[C@H]1COc2c(N3CCN(C)CC3)c(F)cc3c(=O)c(C(=O)O)cn1c23 has Ct at or above 30?
1 (yes)

Dear colleague, could you confirm whether C[C@@H](O)[C@H]1C(=O)N2C(C(=O)O)=C(S[C@@H]3CN[C@H](C(=O)N(C)C)C3)[C@H](C)[C@H]12 has Ct at or above 30?
1 (yes)

Dear colleague, could you confirm whether CN(C)[C@@H]1C(O)=C(C(N)=O)C(=O)[C@@]2(O)C(O)=C3C(=O)c4c(O)cccc4[C@@](C)(O)[C@H]3C[C@@H]12 has Ct at or above 30?
0 (no)

Dear colleague, could you confirm whether O=C1CN(/N=C/c2ccc([N+](=O)[O-])o2)C(=O)N1 has Ct at or above 30?
0 (no)

Dear colleague, could you confirm whether CC1(C)S[C@@H]2[C@H](NC(=O)[C@H](N)c3ccccc3)C(=O)N2[C@H]1C(=O)O has Ct at or above 30?
1 (yes)

====

Answer each item with its documented Ct of Sensitive Breakpoint.
System: M. morganii
Assay: Molecular phenotypic antimicrobial susceptibility test, specimen with two detected pathogens incubated together without isolation
Format: cell-based, Morganella morganii
Conditions: M. morganii in specimen with two detected pathogens (E. coli and M. morganii) incubated together; Ct of controls (average) 19.99
# answer = number (no unit)

Dear colleague, please send me the reported Ct of Sensitive Breakpoint for C[C@@H](O)[C@H]1C(=O)N2C(C(=O)O)=C(S[C@@H]3CN[C@H](C(=O)N(C)C)C3)[C@H](C)[C@H]12 [Meropenem] when you can.
29.99

Dear colleague, please send me the reported Ct of Sensitive Breakpoint for C[C@@H]1O[C@@H]1P(=O)(O)O [Fosfomycin] when you can.
33.43

Dear colleague, please send me the reported Ct of Sensitive Breakpoint for O=C(O)c1cn(C2CC2)c2cc(N3CCNCC3)c(F)cc2c1=O [Ciprofloxacin] when you can.
34.71

Dear colleague, please send me the reported Ct of Sensitive Breakpoint for C[C@H]1COc2c(N3CCN(C)CC3)c(F)cc3c(=O)c(C(=O)O)cn1c23 [Levofloxacin] when you can.
29.62

====

System: pathogens of clinical samples
Assay: Molecular phenotypic antimicrobial susceptibility test of clinical samples, direct PCR without a separate DNA purification step (Table 6)
Format: cell-based
Conditions: E. faecalis, clinical sample of r107-r113, Ct control avg 20.529
Answer each item with its documented Ct.
# answer = number (no unit)

Dear colleague, please send me the reported Ct for C[C@H]1COc2c(N3CCN(C)CC3)c(F)cc3c(=O)c(C(=O)O)cn1c23 when you can.
28.107

Dear colleague, please send me the reported Ct for CN(C)[C@@H]1C(O)=C(C(N)=O)C(=O)[C@@]2(O)C(O)=C3C(=O)c4c(O)cccc4[C@@](C)(O)[C@H]3C[C@@H]12 when you can.
28.789

Dear colleague, please send me the reported Ct for C[C@@H]1O[C@@H]1P(=O)(O)O when you can.
19.527

Dear colleague, please send me the reported Ct for O=C1CN(/N=C/c2ccc([N+](=O)[O-])o2)C(=O)N1 when you can.
32.294

Dear colleague, please send me the reported Ct for CC1(C)S[C@@H]2[C@H](NC(=O)[C@H](N)c3ccccc3)C(=O)N2[C@H]1C(=O)O when you can.
27.555

Dear colleague, please send me the reported Ct for CN[C@H](CC(C)C)C(=O)N[C@H]1C(=O)N[C@@H](CC(N)=O)C(=O)N[C@H]2C(=O)N[C@H]3C(=O)N[C@H](C(=O)N[C@H](C(=O)O)c4cc(O)cc(O)c4-c4cc3ccc4O)[C@H](O)c3ccc(c(Cl)c3)Oc3cc2cc(c3O[C@@H]2O[C@H](CO)[C@@H](O)[C@H](O)[C@H]2O[C@H]2C[C@](C)(N)[C@H](O)[C@H](C)O2)Oc2ccc(cc2Cl)[C@H]1O when you can.
29.81

====

Answer each item with its documented Ct at Sensitive Breakpoint.
System: Escherichia coli
Assay: Molecular phenotypic antimicrobial susceptibility test (extraction or DNA purification prior to PCR)
Type: cell-based
Conditions: E. coli isolate 3, Ct at control (average) 22.0995
# answer = number (no unit)

Dear colleague, please send me the reported Ct at Sensitive Breakpoint for C[C@H]1COc2c(N3CCN(C)CC3)c(F)cc3c(=O)c(C(=O)O)cn1c23 when you can.
29.342

Dear colleague, please send me the reported Ct at Sensitive Breakpoint for CO/N=C(\C(=O)N[C@@H]1C(=O)N2C(C(=O)O)=C(CSc3nc(=O)c(=O)[nH]n3C)CS[C@H]12)c1csc(N)n1 when you can.
18.979

Dear colleague, please send me the reported Ct at Sensitive Breakpoint for C[C@@H](O)[C@H]1C(=O)N2C(C(=O)O)=C(S[C@@H]3CN[C@H](C(=O)N(C)C)C3)[C@H](C)[C@H]12 when you can.
23.588

Dear colleague, please send me the reported Ct at Sensitive Breakpoint for O=C(O)c1cn(C2CC2)c2cc(N3CCNCC3)c(F)cc2c1=O when you can.
21.394

Dear colleague, please send me the reported Ct at Sensitive Breakpoint for Cc1nnc(SCC2=C(C(=O)O)N3C(=O)[C@@H](NC(=O)Cn4cnnn4)[C@H]3SC2)s1 when you can.
20.834

Dear colleague, please send me the reported Ct at Sensitive Breakpoint for CC(C)(O/N=C(\C(=O)N[C@@H]1C(=O)N2C(C(=O)[O-])=C(C[n+]3ccccc3)CS[C@H]12)c1csc(N)n1)C(=O)O when you can.
22.583

Dear colleague, please send me the reported Ct at Sensitive Breakpoint for O=C1CN(/N=C/c2ccc([N+](=O)[O-])o2)C(=O)N1 when you can.
21.722

====

Test system: Acinetobacter baumannii
Experiment: Molecular phenotypic antimicrobial susceptibility test (extraction/DNA purification prior to PCR)
Assay type: cell-based
Details: A. baumannii isolate 5, Ct at control (average) 18.191
OBSERVATION_TYPE: Ct at Sensitive Breakpoint
# answer = number (no unit)

Dear colleague, please send me the reported Ct at Sensitive Breakpoint for O=C(O)c1cn(C2CC2)c2cc(N3CCNCC3)c(F)cc2c1=O when you can.
18.773

Dear colleague, please send me the reported Ct at Sensitive Breakpoint for CO/N=C(\C(=O)N[C@@H]1C(=O)N2C(C(=O)O)=C(CSc3nc(=O)c(=O)[nH]n3C)CS[C@H]12)c1csc(N)n1 when you can.
18.571

Dear colleague, please send me the reported Ct at Sensitive Breakpoint for C[C@@H](O)[C@H]1C(=O)N2C(C(=O)O)=C(S[C@@H]3CN[C@H](C(=O)N(C)C)C3)[C@H](C)[C@H]12 when you can.
20.173

Dear colleague, please send me the reported Ct at Sensitive Breakpoint for CO/N=C(\C(=O)N[C@@H]1C(=O)N2C(C(=O)[O-])=C(C[N+]3(C)CCCC3)CS[C@H]12)c1csc(N)n1 [Cefepime] when you can.
18.489

Dear colleague, please send me the reported Ct at Sensitive Breakpoint for C[C@H]1COc2c(N3CCN(C)CC3)c(F)cc3c(=O)c(C(=O)O)cn1c23 when you can.
19.052
